experiment: Solubility of Compound IX in solvents (Table 1); type: physicochemical; settings: DMSO, organic solvent or mixture, solvent DMSO (entry 10)
observable: solubility (mg/mL)
Number only, in mg/mL; omit the unit.

Query block: Requested field: solubility. Item: O=c1ccc(-c2cnc(OCC(F)(F)F)nc2)n[nH]1 [Compound IX]
Result block: 45

====

test: Solubility of Compound IX in solvents (Table 1); assay type: physicochemical; conditions: 1,4-dioxane, organic solvent or mixture, solvent 1,4-dioxane (entry 8)
observable: solubility (µg/mL)
Number only, in µg/mL; omit the unit.

Query block: Requested field: solubility. Item: O=c1ccc(-c2cnc(OCC(F)(F)F)nc2)n[nH]1 [Compound IX]
Result block: 2900

====

experiment: Solubility of Compound IX in solvents (Table 1); assay type: physicochemical; conditions: t-BuOH, organic solvent or mixture, solvent t-BuOH (entry 14)
observable: solubility
Dear colleague, please send the value followed by its unit.

Query block: Requested field: solubility. Item: `O=c1ccc(-c2cnc(OCC(F)(F)F)nc2)n[nH]1`
Result block: 100 µg/mL

====

experiment: Solubility of Compound IX in solvents (Table 1); assay type: physicochemical; conditions: DMA, organic solvent or mixture, solvent DMA (entry 19)
observable: solubility (mg/mL)
Number only, in mg/mL; omit the unit.

Query block: Requested field: solubility. Item: `O=c1ccc(-c2cnc(OCC(F)(F)F)nc2)n[nH]1`
Result block: 13

====

assay: Solubility of Compound IX in solvents (Table 1); format: physicochemical; settings: MTBE, organic solvent or mixture, solvent MTBE (entry 15)
observable: solubility (µg/mL)
Number only, in µg/mL; omit the unit.

Query block: Requested field: solubility. Item: O=c1ccc(-c2cnc(OCC(F)(F)F)nc2)n[nH]1 [Compound IX]
Result block: 100

====

experiment: Solubility of Compound IX in solvents (Table 1); format: physicochemical; conditions: EtOH, organic solvent or mixture, solvent EtOH (entry 12)
observable: solubility (µg/mL)
Number only, in µg/mL; omit the unit.

Query block: Requested field: solubility. Item: O=c1ccc(-c2cnc(OCC(F)(F)F)nc2)n[nH]1 [Compound IX]
Result block: 1000

====

test: Solubility of Compound IX in solvents (Table 1); assay type: physicochemical; conditions: i-PrOH, organic solvent or mixture, solvent i-PrOH (entry 13)
observable: solubility (µg/mL)
Number only, in µg/mL; omit the unit.

Query block: Requested field: solubility. Item: `O=c1ccc(-c2cnc(OCC(F)(F)F)nc2)n[nH]1`
Result block: 500

====

experiment: Solubility of Compound IX in solvents (Table 1); assay type: physicochemical; conditions: thietane 1,1-dioxide, organic solvent or mixture, solvent thietane 1,1-dioxide (entry 3)
observable: solubility

Query block: Requested field: solubility. Item: O=c1ccc(-c2cnc(OCC(F)(F)F)nc2)n[nH]1 [Compound IX]
Result block: 6350 µg/mL

====

assay: Solubility of Compound IX in solvents (Table 1); type: physicochemical; conditions: MeOH, organic solvent or mixture, solvent MeOH (entry 11)
observable: solubility (µg/mL)
Number only, in µg/mL; omit the unit.

Query block: Requested field: solubility. Item: `O=c1ccc(-c2cnc(OCC(F)(F)F)nc2)n[nH]1`
Result block: 2500

====

experiment: Solubility of Compound IX in solvents (Table 1); format: physicochemical; settings: NMP, organic solvent or mixture, solvent NMP (entry 20)
observable: solubility (mg/mL)
Number only, in mg/mL; omit the unit.

Query block: Requested field: solubility. Item: `O=c1ccc(-c2cnc(OCC(F)(F)F)nc2)n[nH]1`
Result block: 44
